- MEASUREMENT PARAMETERS: Crystal; visual observation
Numbers after ± are expanded uncertainties.
READOUT TYPE: Normal melting temperature
Give the number first and the unit second.

[
  {
    "MOLECULE": "C[N+](C)(C)CCO.[Br-] [choline bromide]",
    "READOUT TYPE": "Normal melting temperature",
    "ASSAY RESULT": "308.5 ± 0.5 °C"
  },
  {
    "MOLECULE": "C[N+](C)(C)C.[Cl-] [tetramethylammonium chloride]",
    "READOUT TYPE": "Normal melting temperature",
    "ASSAY RESULT": "341.6 ± 0.5 °C"
  },
  {
    "MOLECULE": "CCC[N+]1(C)CCCCC1.[Cl-] [1-methyl-1-propyl-piperidinium chloride]",
    "READOUT TYPE": "Normal melting temperature",
    "ASSAY RESULT": "225.2 ± 0.5 °C"
  },
  {
    "MOLECULE": "CC[N+](CC)(CC)CC.[Cl-] [tetraethylammonium chloride]",
    "READOUT TYPE": "Normal melting temperature",
    "ASSAY RESULT": "262.2 ± 0.5 °C"
  }
]

[in] // lookup Normal melting temperature for C[N+](C)(CCO)CCO.[Cl-] [diethanoldimethylammonium chloride]
[out] 290.6 ± 0.5 °C

[in] Also check C[N+](C)(C)Cc1ccccc1.[Cl-] [trimethylbenzylammonium chloride]
[out] 236.1 ± 0.5 °C

Where do these numbers come from? They come from the NIST ThermoML archive (doi:10.1016/j.fluid.2019.04.019).
